Biological target: Msn1 (UniProt P22148)
Sequence: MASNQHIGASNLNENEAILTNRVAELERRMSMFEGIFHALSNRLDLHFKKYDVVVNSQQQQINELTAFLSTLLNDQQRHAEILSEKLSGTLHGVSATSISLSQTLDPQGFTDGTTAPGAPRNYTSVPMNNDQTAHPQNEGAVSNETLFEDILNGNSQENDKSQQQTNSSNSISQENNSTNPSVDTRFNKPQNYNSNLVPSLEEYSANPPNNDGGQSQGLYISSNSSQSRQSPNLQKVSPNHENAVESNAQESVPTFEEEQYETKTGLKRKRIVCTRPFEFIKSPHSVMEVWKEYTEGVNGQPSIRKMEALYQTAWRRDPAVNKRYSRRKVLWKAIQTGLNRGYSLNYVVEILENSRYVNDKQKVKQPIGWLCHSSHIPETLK
Assay: PBM E-score (8-mer binding enrichment) (E-score (-0.5 to 0.5)); higher = stronger / more preferred TF binding
Details: protein concentration: 200 nM; construct: GST-full length
Whole data set: some 33,000 sequences, median “E-score (-0.5 to 0.5)” near -0.013, cut for the highest 2% near 0.3. This excerpt belongs to a sample that is enriched for the highest values.
measuredEndpoint: PBM E-score

recordSequence | measuredEndpoint | reportedMeasurement
TGTGCGAA | PBM E-score | -0.0498
TGTACCAA | PBM E-score | 0.328
AGTGTCTC | PBM E-score | 0.0356
GCGACAGA | PBM E-score | 0.144
CCGACAAC | PBM E-score | 0.167
TTCCGAAA | PBM E-score | 0.0799
ATTGTCTC | PBM E-score | 0.378
CGTGTCGC | PBM E-score | 0.202
CGGCCACG | PBM E-score | -0.189
CTCCGAGA | PBM E-score | 0.152
AGCGGACT | PBM E-score | -0.229
ACTGTCTC | PBM E-score | -0.00421
ACCACAGA | PBM E-score | 0.0742
GGCGAAAA | PBM E-score | 0.24
CGTGTCGA | PBM E-score | 0.0442
TGCGGAAA | PBM E-score | 0.0764
CTGGCCAA | PBM E-score | -0.0295
GCGAGATA | PBM E-score | 0.09
GCTACACC | PBM E-score | -0.162
AGGCAAAA | PBM E-score | 0.163
GGCGAGGA | PBM E-score | -0.0575
ATCCGACA | PBM E-score | 0.128
CCGACAAG | PBM E-score | 0.13
CGCGGACC | PBM E-score | 0.0148
AGCGGACA | PBM E-score | 0.359
GGGCCTAA | PBM E-score | -0.0118
CGCTACAC | PBM E-score | -0.231
ATCCGAGA | PBM E-score | 0.187
CGGGTTGA | PBM E-score | -0.255
GGTGTCTA | PBM E-score | 0.0447
GCATTTGA | PBM E-score | 0.051
ATCCGAAG | PBM E-score | 0.0243
CGAGTGCG | PBM E-score | 0.0204
AGTACTAA | PBM E-score | 0.121
TCGACAGA | PBM E-score | -0.101
TGTACTAA | PBM E-score | 0.321
GCTGCTCC | PBM E-score | -0.218
GCGACAAA | PBM E-score | 0.355
AGTGTCCC | PBM E-score | 0.375
AGTGTCCG | PBM E-score | 0.179
AGGATACG | PBM E-score | -0.105
ACTCCCTC | PBM E-score | -0.312
TGCGGACA | PBM E-score | 0.427
AACAGCGT | PBM E-score | 0.0185
AGCGGACG | PBM E-score | 0.0534
ATCCGAAT | PBM E-score | 0.309

The values you see were collected from the supplement of paper PMC3334620.
